# ASSAY REMARKS: differential killing of epithelial or mesenchymal cells, primary screen, imaging, PC-3E GFP, TEM4-18 mCherry, co-culture (AID 1345086);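 note: normalised mesenchymal count divided by normalised epithelial count so high means epithelial killing; cells exposed to compound for 72 h before imaging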
# CONDITION SET: imaging cell counts, at 1 µM, actives lie on both sides, counts scaled to control wells, 1 = unselective

[
  {
    "COMPOUND": "CC1=C2[C@](C)(C=CC1=O)C[C@H](O)[C@H]1[C@H](C)C(=O)O[C@]21C",
    "red/green cell ratio (normalised)": 1.06
  },
  {
    "COMPOUND": "CO[C@H]1OC2COC(c3ccccc3)OC2[C@H](OCc2ccccc2)[C@@H]1OCc1ccccc1 (stereo not given in full)",
    "red/green cell ratio (normalised)": 1
  },
  {
    "COMPOUND": "CC(C)[C@H]1COC(=O)N1C(=O)CC(C)N1C(=S)OC[C@H]1c1ccccc1 (stereo not given in full)",
    "red/green cell ratio (normalised)": 1.05
  },
  {
    "COMPOUND": "O=C(O)C1CSCN1 (stereo not given)",
    "red/green cell ratio (normalised)": 0.88
  },
  {
    "COMPOUND": "CC(=O)O[C@H]1CC[C@@]2(C)C(=CCC3C2CC[C@@]2(C)C3CC[C@@H]2C(C)CCCC(C)C)C1 (stereo not given in full)",
    "red/green cell ratio (normalised)": 1.16
  },
  {
    "COMPOUND": "CO/N=C(/C(=O)NC1C(=O)N2C(C(=O)O)=C(C[N+]3(C)CCCC3)CSC12)c1csc(N)n1 (stereo not given)",
    "red/green cell ratio (normalised)": 1.01
  },
  {
    "COMPOUND": "COc1ccc2c(c1)CCC1C2CC[C@@]2(C)C1CC[C@@H]2O (stereo not given in full)",
    "red/green cell ratio (normalised)": 0.78
  },
  {
    "COMPOUND": "CCCCCCCCCCCCCCCC(=O)OC[C@H](NC(=O)C(Cl)Cl)[C@H](O)c1ccc([N+](=O)[O-])cc1",
    "red/green cell ratio (normalised)": 1.04
  },
  {
    "COMPOUND": "C[C@@H]1C[C@@H](O)[C@@H](O)CO1",
    "red/green cell ratio (normalised)": 1.05
  },
  {
    "COMPOUND": "C[C@H]1CC[C@@H](C(C)(C)O)CC2=C1CC[C@@H]2C",
    "red/green cell ratio (normalised)": 1.27
  }
]

---

# ASSAY REMARKS: ovarian cancer cell viability with rucaparib, profiling panel, oncology-focused library, rucaparib conditional (AID 1508598)
# CONDITION SET: patient-derived ovarian cancer cells, CellTiter-Glo viability, 144 h; at 0.0781 µM; OCI-C5x cells; with rucaparib 10 µM; hits give low values; 100% = cells with rucaparib alone

[
  {
    "MOLECULE": "N#Cc1c(O)c2c(-c3ccc(-c4ccccc4O)cc3)csc2[nH]c1=O",
    "viability / %": 113
  },
  {
    "MOLECULE": "C[C@@H](N)C1CCC(C(=O)Nc2ccncc2)CC1 (stereo partly specified)",
    "viability / %": 113
  },
  {
    "MOLECULE": "Cc1ccc(S(=O)(=O)/C=C/C#N)cc1",
    "viability / %": 115
  },
  {
    "MOLECULE": "NC(=O)Nc1sc(-c2ccc(F)cc2)cc1C(N)=O",
    "viability / %": 115
  },
  {
    "MOLECULE": "Cn1cc(C2=C(c3ccc(Cl)cc3Cl)C(=O)NC2=O)c2ccccc21",
    "viability / %": 110
  },
  {
    "MOLECULE": "Nc1nc(F)nc2c1ncn2[C@@H]1O[C@H](COP(=O)(O)O)[C@@H](O)[C@@H]1O",
    "viability / %": 101
  },
  {
    "MOLECULE": "CS(=O)c1ccc(-c2nc(-c3ccc(F)cc3)c(-c3ccncc3)[nH]2)cc1 (stereo unspecified)",
    "viability / %": 127
  },
  {
    "MOLECULE": "Nc1nc(Cl)nc2c1ncn2[C@H]1C[C@H](O)[C@@H](CO)O1",
    "viability / %": 105
  },
  {
    "MOLECULE": "O=C(c1ccc(OCCN2CCCCC2)cc1)c1c(-c2ccc(O)cc2)sc2cc(O)ccc12",
    "viability / %": 121
  },
  {
    "MOLECULE": "CN(C)CCCn1cc(C2=C(c3c[nH]c4ccccc34)C(=O)NC2=O)c2ccccc21",
    "viability / %": 113
  },
  {
    "MOLECULE": "O=c1[nH]c(-c2ccc(C(F)(F)F)cc2)nc2c1CSCC2",
    "viability / %": 110
  }
]

---

Recorded measurements of growth inhibition, one per entry
# ASSAY REMARKS: inhibition of 3D7 malaria parasite growth – strain 3D7 (AID 2306);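 note: 0% = DMSO wells and 100% = chloroquine plus artemisinin control wells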
# CONDITION SET: P. falciparum 3D7 erythrocytic growth, LDH absorbance, 72 h; at 2 µM; hits give high values
The source made the active and inactive calls. The rule behind the calls is not given here.
MEASUREMENT KIND: growth inhibition

[
  {
    "MOLECULE": "COc1cccc(Cn2ccc3c4c(N)nc(N)nc4ccc32)c1",
    "MEASUREMENT KIND": "growth inhibition",
    "TEST VALUE": "99% (active)"
  },
  {
    "MOLECULE": "O=C(NNC(=O)c1ccc(CCN2CCC(c3nc(COCC(F)(F)F)c(-c4ccc(F)cc4)o3)CC2)cc1)Nc1ccc(Oc2ccccc2)cc1",
    "MEASUREMENT KIND": "growth inhibition",
    "TEST VALUE": "102% (active)"
  },
  {
    "MOLECULE": "O=C(NCc1ccc(F)cc1)c1ccc(N2CCN(c3ccncc3)CC2)cn1",
    "MEASUREMENT KIND": "growth inhibition",
    "TEST VALUE": "98% (active)"
  },
  {
    "MOLECULE": "COc1ccc(C(=O)Nc2ccc(Cl)cc2C(=O)Nc2ccncc2)cc1",
    "MEASUREMENT KIND": "growth inhibition",
    "TEST VALUE": "91% (active)"
  },
  {
    "MOLECULE": "CC(=O)Oc1c(C(=O)C2CCC(C(C)(C)C)CC2)c(OC(C)=O)c2ccccc2c1OC(C)=O (stereo not given)",
    "MEASUREMENT KIND": "growth inhibition",
    "TEST VALUE": "96% (active)"
  },
  {
    "MOLECULE": "Nc1ncc(-c2ccc(F)c(Cl)c2)c(N)n1",
    "MEASUREMENT KIND": "growth inhibition",
    "TEST VALUE": "83% (active)"
  },
  {
    "MOLECULE": "c1cc(COc2ccc(C3=NCCN3)cc2)nc(COc2ccc(C3=NCCN3)cc2)c1",
    "MEASUREMENT KIND": "growth inhibition",
    "TEST VALUE": "100% (active)"
  },
  {
    "MOLECULE": "CCNc1cc(C(=O)N[C@@H](Cc2cccc(Cl)c2)[C@H](O)CNC(C)CCCC(C)C)cc(N2CCCCS2(=O)=O)c1 (stereo not given in full)",
    "MEASUREMENT KIND": "growth inhibition",
    "TEST VALUE": "98% (active)"
  },
  {
    "MOLECULE": "Cc1ccc(-c2cc(C(=O)Nc3ccc(S(=O)(=O)N4CCOCC4)cc3)[nH]n2)c(O)c1C",
    "MEASUREMENT KIND": "growth inhibition",
    "TEST VALUE": "91% (active)"
  },
  {
    "MOLECULE": "CCc1ccc(Cc2cnc3nc(N)nc(N)c3c2C)cc1CC",
    "MEASUREMENT KIND": "growth inhibition",
    "TEST VALUE": "97% (active)"
  },
  {
    "MOLECULE": "CCCN(c1ccc(O)c(CN2CCCCC2)c1)c1ccc([N+](=O)[O-])cn1",
    "MEASUREMENT KIND": "growth inhibition",
    "TEST VALUE": "99% (active)"
  },
  {
    "MOLECULE": "CC(C)(CNC(=O)C1CCN(CCOc2ccc(F)c(F)c2)CC1)c1nc(-c2ccc(Cl)c(O)c2)c(-c2ccncc2)[nH]1",
    "MEASUREMENT KIND": "growth inhibition",
    "TEST VALUE": "101% (active)"
  },
  {
    "MOLECULE": "COc1c(C2CCN(CCCCNC(=O)C=Cc3ccccc3C(F)(F)F)CC2)ccc2c1CCCC2",
    "MEASUREMENT KIND": "growth inhibition",
    "TEST VALUE": "96% (active)"
  },
  {
    "MOLECULE": "Cc1nc(N)nc(N)c1-c1ccc(Br)c(Br)c1",
    "MEASUREMENT KIND": "growth inhibition",
    "TEST VALUE": "94% (active)"
  },
  {
    "MOLECULE": "O=C(/C=C/c1ccc(Cl)c(Cl)c1)NCCCCCCN1CCN(C(=O)Nc2ccc(OC(F)F)cc2)CC1",
    "MEASUREMENT KIND": "growth inhibition",
    "TEST VALUE": "91% (active)"
  },
  {
    "MOLECULE": "c1ccc(Oc2ccc(Nc3ccnc4cc(-c5ccc(CNCCN6CCOCC6)o5)ccc34)cc2)cc1",
    "MEASUREMENT KIND": "growth inhibition",
    "TEST VALUE": "99% (active)"
  },
  {
    "MOLECULE": "NC(N)=NC(=O)Nc1ccc(Cl)c([N+](=O)[O-])c1",
    "MEASUREMENT KIND": "growth inhibition",
    "TEST VALUE": "97% (active)"
  },
  {
    "MOLECULE": "N#Cc1ccc(C(=O)Nc2ccc(-c3cccc(CN4CCCC4)c3)cc2)cc1",
    "MEASUREMENT KIND": "growth inhibition",
    "TEST VALUE": "89% (active)"
  },
  {
    "MOLECULE": "O=C(/C=C/c1ccc(-c2nc3cc(F)c(F)cc3[nH]2)cc1)NCc1ccc(Cl)c(Cl)c1",
    "MEASUREMENT KIND": "growth inhibition",
    "TEST VALUE": "100% (active)"
  },
  {
    "MOLECULE": "Cc1ccc(OCCCCONC(=O)c2ccccc2)cc1",
    "MEASUREMENT KIND": "growth inhibition",
    "TEST VALUE": "96% (active)"
  },
  {
    "MOLECULE": "COc1ccc(Nc2ncc3c(-c4cccc(NC(=O)Cc5cccc(O)c5)c4)c[nH]c3n2)cc1OC",
    "MEASUREMENT KIND": "growth inhibition",
    "TEST VALUE": "101% (active)"
  },
  {
    "MOLECULE": "CCN(CCCN1CCCCC1)c1cc(C)nc(Nc2ccc3c(c2)CCC3)n1",
    "MEASUREMENT KIND": "growth inhibition",
    "TEST VALUE": "100% (active)"
  },
  {
    "MOLECULE": "CCCCCCN1CCC(NCc2ccc(OCCN3CCCC3)cc2)CC1",
    "MEASUREMENT KIND": "growth inhibition",
    "TEST VALUE": "101% (active)"
  },
  {
    "MOLECULE": "Cc1ccccc1Oc1ccc(Nc2ccnc(Nc3cccc(C(N)=O)c3)n2)cc1C(F)(F)F",
    "MEASUREMENT KIND": "growth inhibition",
    "TEST VALUE": "81% (active)"
  },
  {
    "MOLECULE": "CCOc1cc(C)ccc1C1CCN(CCCCNC(=O)c2nc(-c3ccc(C(F)(F)F)cc3)[nH]c2C)CC1",
    "MEASUREMENT KIND": "growth inhibition",
    "TEST VALUE": "100% (active)"
  },
  {
    "MOLECULE": "c1ccc(COc2ccc(Nc3ncnc4cnc(-c5ccc(CN6CCCCC6)o5)cc34)cc2)cc1",
    "MEASUREMENT KIND": "growth inhibition",
    "TEST VALUE": "90% (active)"
  },
  {
    "MOLECULE": "O=C(Nc1cccc(CN2CCCN(Cc3cccc(O)c3)CC2)c1)c1cc2ccccc2s1",
    "MEASUREMENT KIND": "growth inhibition",
    "TEST VALUE": "101% (active)"
  },
  {
    "MOLECULE": "CCC(=C(CC)c1ccc(O)c(CNC2CCCCC2)c1)c1ccc(O)c(CNC2CCCCC2)c1",
    "MEASUREMENT KIND": "growth inhibition",
    "TEST VALUE": "100% (active)"
  },
  {
    "MOLECULE": "CN1CCC(NCc2ccc(-c3ccc(S(=O)(=O)NCc4ccccc4)c(F)c3)cc2)CC1",
    "MEASUREMENT KIND": "growth inhibition",
    "TEST VALUE": "99% (active)"
  },
  {
    "MOLECULE": "CN1CCC[C@H]1COc1ccc(CN2CC[C@H](NC(=O)c3ccc(Cl)c(Cl)c3)C2)cc1Br",
    "MEASUREMENT KIND": "growth inhibition",
    "TEST VALUE": "101% (active)"
  }
]

Data provenance is PubChem BioAssay.
